This collection of values is drawn from PubChem BioAssay.

# Measurement protocol: PSAC antagonists in infected red cells, primary screen, cell-based, P. falciparum Indochina, OD700, 1 h (AID 1154)
# Condition set: P. falciparum Indochina infected RBC osmotic lysis, called active from +8 up or from −8 down
Active and inactive are the calls of the source.
Outcome codes: active, inactive

* CCCC[C@@H]1C[C@H]1[C@@H](NC(=O)c1ccco1)c1ccccc1C(F)(F)F | inactive
* COC(=O)C(CC#Cc1ccc2c(c1)[C@]1(C(=O)N2)[C@H](C(=O)Nc2nc3ccccc3s2)[C@H]2C(=O)O[C@H](c3ccccc3)[C@H](c3ccccc3)N2[C@@H]1c1ccccc1OCCO)C(=O)OC | inactive
* Cc1nc2cc(Br)ccc2c(=O)o1 | inactive
* CC(C)C(=C=CC[C@@H](O)c1ccc(OCCO)cc1)C[C@@H](O)c1ccccn1 | inactive
* C[N+](C)(C)CCCCNC(=O)[C@@H]1C[C@@H]2C(=O)N[C@@H](Cc3ccccc3)C(=O)N2[C@@H]1c1cccc(OCCO)c1 | inactive
* CC(C)C(=C=CC[C@@H](O)c1ccc(OCCO)cc1)C[C@@H](O)COCc1ccccc1 | active
* COC(=O)[C@]1(CCC(=O)OC(C)(C)C)N=C(c2ccc(OCCCO)cc2)O[C@@H]1c1ccccc1CN=[N+]=[N-] | active
* CCCCN1CC=CC23O[C@@H]4C=CCCOC(=O)C4[C@H]2C(=O)N(CCCCCCO)[C@@H]3C1=O (stereo partly drawn) | inactive

----------
# Measurement protocol: small-molecule microarray binders of probe aDKK1, primary screen, biochemical, biotinylated probe, 635/667 nm fluorescence (AID 1099);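 further: score merges 667nm spot fluorescence with signal to noise across triplicate slides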
# Condition set: higher = more signal
composite z-score values for the compounds below.
Measured parameter: composite z-score

• COCCCNC(=O)[C@@]1(C)c2ccccc2C(=O)N(C(C)C)[C@H]1c1ccc(CO)cc1 = 0.174
• COc1ccc([Si](C)(C)[C@H]2[C@H](CCO)O[C@@]3(C(=O)N(Cc4ccc(N(C=O)c5ccccc5)cc4)c4ccccc43)[C@@H]2C)cc1 = -0.214
• CCOC(=O)C1=C[C@@H](C(C)(C)C)N(S(=O)(=O)c2ccc(C)cc2)[C@H]1c1ccc(F)cc1 = 0.75
• O=C1[C@@]23C=C(Br)[C@H](C[C@@H]2CCOC3)[C@@]12CO2 = -0.327

----------
# Assayed system: Dihydroorotate dehydrogenase (quinone), mitochondrial (Plasmodium falciparum (isolate 3D7)) (UniProt Q08210)
# Sequence (Q08210 whole entry, looked up): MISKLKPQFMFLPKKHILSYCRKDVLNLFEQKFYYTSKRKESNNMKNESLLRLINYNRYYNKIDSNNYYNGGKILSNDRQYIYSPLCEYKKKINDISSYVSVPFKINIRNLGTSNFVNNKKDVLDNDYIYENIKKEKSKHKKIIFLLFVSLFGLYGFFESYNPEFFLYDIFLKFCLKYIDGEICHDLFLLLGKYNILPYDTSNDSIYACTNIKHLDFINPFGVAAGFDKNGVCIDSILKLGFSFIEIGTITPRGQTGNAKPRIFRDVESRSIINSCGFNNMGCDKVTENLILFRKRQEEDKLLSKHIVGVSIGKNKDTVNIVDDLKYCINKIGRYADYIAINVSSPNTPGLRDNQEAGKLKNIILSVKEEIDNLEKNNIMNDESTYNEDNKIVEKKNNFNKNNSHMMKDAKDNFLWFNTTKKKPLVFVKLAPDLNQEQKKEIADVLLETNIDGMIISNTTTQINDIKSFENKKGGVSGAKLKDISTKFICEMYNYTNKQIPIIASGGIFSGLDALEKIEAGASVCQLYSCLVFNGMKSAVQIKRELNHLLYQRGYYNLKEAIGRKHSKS
# Measurement protocol: PfDHODH enzyme inhibitors, primary screen, biochemical, C-terminal His tag, absorbance 600 nm (AID 1175);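 further: recombinant parasite enzyme with a five histidine tag at its C terminus; test concentration not given here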
# Condition set: DCIP absorbance 600 nm, higher = more signal, called active from +8 up or from −8 down
composite z-score values for the compounds below.
Measured parameter: composite z-score

• COC(=O)[C@@]1(Cc2ccc(OC)cc2)[C@H]2c3cc(C(=O)N4CCCC4)n(Cc4ccc(C)c(F)c4F)c3C[C@H]2CN1C(=O)c1ccccc1 = 0.104
• COc1ccc(C#Cc2ccc3c(c2)[C@]2(C(=O)N3)[C@H](C(=O)Nc3nc4ccccc4s3)[C@H]3C(=O)O[C@H](c4ccccc4)[C@H](c4ccccc4)N3[C@@H]2c2ccc(O)cc2)cc1 = -2.08
• C=CCC(OC(C)=O)[C@@H]1[C@@H](N(Cc2ccc(-c3ccccc3)cc2)C(=O)c2cccc3ccccc23)c2cc(OCCCO)ccc2N1C(=O)c1ccc(-c2ccccc2)cc1 (some centres not stated) = -0.0355
• O=C1[C@@]23C=C(Br)[C@H](C[C@@H]2CCOC3)[C@@]12CO2 = -0.0887
• COCCOC(=O)N1C(=O)[C@@]2(c3cc(C#CCNC(N)=O)ccc31)[C@H](C(=O)Nc1nc3ccccc3s1)[C@H]1C(=O)O[C@H](c3ccccc3)[C@H](c3ccccc3)N1[C@@H]2c1ccc(OCCO)cc1 = -0.716
• C=C(C(=O)CC[C@@H](OC(=O)c1cccnc1)c1ccccc1OCCO)C(C)C = -0.0125
• C=CCNC(=O)[C@@H]1[C@H]2C(=O)O[C@H](c3ccccc3)[C@H](c3ccccc3)N2[C@H](c2ccc(O)cc2)[C@@]12C(=O)N(C(=O)OCCOC)c1ccc(C#CCNC(N)=O)cc12 = -1.74
• CC(C)C(=C=CC[C@@H](O)c1ccc(OCCO)cc1)C[C@@H](O)COCc1ccccc1 = -2.2
• COCCOC(=O)N1C(=O)[C@@]2(c3cc(C#CCNC(N)=O)ccc31)[C@H](C(=O)N1CCN(c3ncccn3)CC1)[C@H]1C(=O)O[C@H](c3ccccc3)[C@H](c3ccccc3)N1[C@@H]2c1ccc(OCCO)cc1 = -0.0103
• C=CCOC(=O)[C@H]1[C@@H]2C(=O)O[C@@H](c3ccccc3)[C@@H](c3ccccc3)N2[C@@H](c2ccc(OCCOC(=O)[C@H]3C[C@H]4C(=O)N[C@@H](CCCCN(C)C)C(=O)N4[C@H]3c3ccc(O)cc3)cc2)[C@]12C(=O)Nc1ccc(I)cc12 = 0.341
• COc1cc2c(cc1OC)CN(C(=O)[C@H]1[C@@H]3C(=O)O[C@@H](c4ccccc4)[C@@H](c4ccccc4)N3[C@@H](c3ccc(O)cc3)[C@]13C(=O)Nc1ccccc13)CC2 = 0.806
• Cc1ccccc1C(O)C1C=CC2C(=O)N(c3ccccc3)C(=O)C2N1Nc1ccc(C(C)C)cc1 (configuration not stated) = 1.82

----------
# Assayed system: Carbonic anhydrase 2 (Homo sapiens) (UniProt P00918)
# Measurement protocol: CAII small-molecule binders, profiling panel, biochemical, small-molecule microarray, Alexa647-labelled CAII (AID 1122)
# Condition set: CAII-A647 binding fluorescence, higher = more signal
Measured parameter: composite z-score

• CC(C)C[C@@H]1NC(=O)[C@@H]2C[C@H](C(=O)O)[C@H](c3cccc(OCCO)c3)N2C1=O = 0.673
• CC(CO)N1C(=O)[C@@H]2C3C(=O)OCCC/C=C\[C@H]3OC23C=CCN(C(C)(C)C)C(=O)[C@@H]13 (some centres not stated) = 0.872
• CCCC[C@@H]1C[C@H]1[C@@H](NC(=O)C(C)(C)C)c1ccc(C(F)(F)F)cc1 = 0.289
• CC(C)=CCCC(C)=CC(O)C1C=CC2C(=O)N(C)C(=O)C2N1Nc1ccccc1 (configuration not stated) = 0.435
• CN1C(=O)C2C=CC(C(O)c3ccc([N+](=O)[O-])cc3)N(N3CCCCC3)C2C1=O (configuration not stated) = 0.673
• C=CCOC(=O)[C@H]1[C@@H]2C(=O)O[C@@H](c3ccccc3)[C@@H](c3ccccc3)N2[C@@H](c2ccc(OCCOC(=O)[C@H]3C[C@H]4C(=O)N[C@@H](CCCC[N+](C)(C)C)C(=O)N4[C@H]3c3ccc(O)cc3)cc2)[C@]12C(=O)Nc1ccc(I)cc12 = -0.141
• COc1cc2c(cc1OC)CN(C(=O)[C@@H]1[C@H]3C(=O)O[C@H](c4ccccc4)[C@H](c4ccccc4)N3[C@H](c3ccccc3OCCO)[C@@]13C(=O)Nc1ccc(C#CCCO)cc13)CC2 = 0.402

----------
# Measurement protocol: anti-His antibody binders, primary screen, artefact control for SMM control protein annotation, biochemical, small-molecule microarray, 635 nm fluorescence (AID 1128);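 further: score merges feature fluorescence with signal-to-noise for each printed compound spot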
# Condition set: anti-His Alexa647 antibody binding, higher = more signal
Measured parameter: composite z-score

- CC(C)N1C(=O)[C@@]2(Cc3ccccc31)c1ccccc1C(=O)N(Cc1ccccc1Cl)[C@H]2c1ccc(CO)cc1: -0.145
- CN(C)CCCC[C@@H]1NC(=O)[C@@H]2C[C@H](C(=O)NCCCCCCN)[C@H](c3cccc(OCCO)c3)N2C1=O: 3.34
- COC(=O)[C@@]1(Cc2ccc(F)cc2)[C@H]2c3cc(C(=O)N4CCCC4)n(CCCNc4ncc(C(F)(F)F)cc4Cl)c3C[C@H]2CN1C(=O)c1ccccc1: 2.47
- COC(=O)[C@@]1(Cc2ccc(F)cc2)[C@H]2c3cc(C(=O)N(C)C)n(Cc4ccc(Cl)c(C(F)(F)F)c4)c3C[C@H]2CN1C(=O)c1ccccc1: 2.56
- COc1ccc([Si](C)(C)[C@@H]2[C@@H](CC(=O)N3CCC[C@H]3CO)O[C@]3(C(=O)N(c4ccccc4)c4ccccc43)[C@H]2C)cc1: 0.806
- CCS[C@H]1[C@@H](C(=O)O)[C@H](c2ccc(C)cc2)N(S(=O)(=O)c2ccc(C)cc2)[C@@H]1CC: 1.12
- CC(C)N1C(=O)C[C@@](C(=O)NCC(F)(F)F)(c2ccc([N+](=O)[O-])cc2)[C@H]1c1ccc(CO)cc1: -0.203
- Cc1ccc(S[C@]2(C(=O)O)CC(=O)N(C(C)C)[C@@H]2c2ccc(CO)cc2I)cc1: 3.36
- C=CCN1C(=O)[C@@]2(Cc3ccccc31)N=C(c1ccc(OCCCO)cc1)O[C@H]2c1ccccc1: 2.49
- O=C1O[C@H](c2ccccc2)[C@H](c2ccccc2)N2[C@H]1[C@@H](C(=O)N1CCCCCCC1)[C@]1(C(=O)Nc3ccc(C#CC4=CCCCC4)cc31)[C@H]2c1ccc(OCCO)cc1: 2.15
- CC(C)C(O)C1C=CC2C(=O)NC(=O)C2N1Nc1ccc(Cl)cc1Cl (stereo not given): 1.03
- NCCCCCCNC(=O)[C@@H]1C[C@@H]2C(=O)NCC(=O)N2[C@@H]1c1ccc(O)cc1: 1.2
- CCOC(=O)C[C@H]1[C@H](OC(=O)c2ccc(C(=O)c3ccccc3)cc2)[C@@H](NC(=O)c2ccccc2)c2cc(OCCCO)ccc2N1C(=O)c1ccc2ccccc2n1: 1.03
- CC(C)C(O)C1C=CC2C(=O)N(c3ccccc3)C(=O)C2N1Nc1ccc([N+](=O)[O-])cc1 (stereo not given): 0.663
- CC1CC/C=C\[C@H]2OC34C=CCN(Cc5ccccc5)C(=O)[C@H]3N(CCCO)C(=O)[C@@H]4C2C(=O)O1 (stereo not given in full): 0.522
- CC1(C)[C@@H]2CC(C(O)C3C=CC4C(=O)N(Cc5ccccc5)C(=O)C4N3n3cnnc3)=C[C@H]1C2 (stereo not given in full): 0.356
- [N-]=[N+]=NCc1ccccc1C[C@]1(C(=O)N2CCCCC2)N=C(c2ccc(OCCCO)cc2)O[C@H]1c1ccccc1N=[N+]=[N-]: 2.87
- CC1(C)C2C=C(C(O)C3C=CC4C(=O)NC(=O)C4N3Nc3ccc(Cl)cc3Cl)C[C@@H]1C2 (stereo not given in full): 1.26
- [N-]=[N+]=NCc1ccccc1C[C@]1(C(N)=O)COC(c2ccc(OCCCO)cc2)=N1: 0.0064
- C=C[C@H](CO)NS(=O)(=O)c1ccc(Br)cc1: 0.461
- Cc1ccc([C@@H]2C[C@@H](Sc3ccccc3)[C@H](C(=O)O)CN2S(=O)(=O)c2ccc(C)cc2)cc1: 1.98
- CCCCCN1CC=CC23O[C@@H]4C=CCCOC(=O)C4[C@H]2C(=O)N(CCCCCO)[C@@H]3C1=O (stereo not given in full): 0.587
- C=C[C@H](CO[Si](CC)(CC)CC)N(Cc1ccc(OC(C)=O)c(OC)c1)S(=O)(=O)c1ccc(Br)cc1: 2.48
- COC(=O)[C@@]1(Cc2ccc(OC)cc2)[C@H]2c3cc(C(=O)N(C)C)n(Cc4ccccn4)c3C[C@H]2CN1C(=O)c1ccccc1: 1.57
- CCCC[C@@H]1C[C@H]1[C@@H](NC(=O)c1ccco1)c1ccccc1C(F)(F)F: -0.422
- CC(C)=CCN[C@H](CO)c1ccccc1: -0.23
- COCCOC(=O)N1C(=O)[C@@]2(c3cc(C#CCCO)ccc31)[C@H](C(N)=O)[C@H]1C(=O)O[C@H](c3ccccc3)[C@H](c3ccccc3)N1[C@@H]2c1ccc(O)cc1: -0.0637
- CN(C)CCCCCCNC(=O)[C@@H]1C[C@@H]2C(=O)N[C@@H](Cc3ccccc3)C(=O)N2[C@@H]1c1ccc(O)cc1: 2.45
- COc1ccc([Si](C)(C)[C@H]2[C@H](CCO)O[C@@]3(C(=O)N(Cc4ccc(N(C=O)c5ccccc5)cc4)c4ccccc43)[C@@H]2C)cc1: 0.841
- COc1cc2c(cc1OC)CN(C(=O)[C@@H]1[C@H]3C(=O)O[C@H](c4ccccc4)[C@H](c4ccccc4)N3[C@H](c3ccc(O)cc3)[C@@]13C(=O)Nc1ccccc13)CC2: 0.948
